The following sequences are listed with their measured apparent KD of MS2 coat protein values.
- System: MS2 coat protein
- Test description: apparent KD of MS2 coat protein; designed switch direction (-1 OFF switch, 1 ON switch): -1; higher = weaker reporter binding
- Setup conditions: input ligand: FMN 200 uM
Assay endpoint: apparent KD of MS2 coat protein (nM)

Residues: GGGCUCGGUGUGAGGAUAUGCUCGGGUAAACUCGGGCAGAAGGCACAUGAGGAUCACCCAUGUAAGUCGGGCUC [-28.5, -27.4 kcal, A 23%, 4bis-4] (Eterna round: R97, puzzle: Brourd's mod of Exclusion 4)
Assay endpoint: apparent KD of MS2 coat protein
Unit label: nM
Observed: 18.6

Residues: ACAAGCAGAGAGUAAAUGGACAUGAGGAUCACCCAUGUGAGUCCAAGGAGAUAAGAUAUAUUAUUGGCUCGUCUUAU [AK-miRNA-r3-20] (Eterna round: R97, puzzle: Sensor, turn-off variant 1)
Assay endpoint: apparent KD of MS2 coat protein
Unit label: nM
Observed: 75.2

Residues: AAUAAUCGGGCCUUCCUAAUACAUGAGGAUCACCCAUGUCUCGAGGAUAUACCAACGCACGGUCCGUAGAAGGCGAGACCACAC [Vesoonso] (Eterna round: R96, puzzle: Exclusion NG 3)
Assay endpoint: apparent KD of MS2 coat protein
Unit label: nM
Observed: 24.2

Residues: GGAUAAAAGACAGGAUAUACGCACCACUAACGAGUAGAAGGGUCACAUGAGGAUCACCCAUGUGAGUUCUCAAUAAGAAACACG [Prohibition 67 - Jieux - Exclusion NG 1] (Eterna round: R96, puzzle: Exclusion NG 1)
Assay endpoint: apparent KD of MS2 coat protein
Unit label: nM
Observed: 14.2

Residues: GAUGAAAGAGUCAGGAUAUAUAACCACGACGGCUUGUAGAAGGGACAUGAGGAUCACCCAUGUGAUGGAAUGAU [Eternabot (L2) Solution 13] (Eterna round: R97, puzzle: Brourd's mod of Exclusion 4)
Assay endpoint: apparent KD of MS2 coat protein
Unit label: nM
Observed: 64

Residues: AUAAUUAGUUCAGGAUAUCAGCACGAUUAGUGCUGAGAAGGGAACAUGAGGAUCACCCAUGUGAUCAAUAUUAUAAUUUUAAUU [ENG1/12-B1] (Eterna round: R96, puzzle: Exclusion NG 1)
Assay endpoint: apparent KD of MS2 coat protein
Unit label: nM
Observed: 281

Residues: GGAAGGAGUGUCAGGAUAUCCGGAGGGAAACCUCCGGAGAAGGGACAUGAGGAUCACCCAUGUAGAGGAAGGAG [AK-MS2ROC-r4-Bmoexclusion4-9] (Eterna round: R97, puzzle: Brourd's mod of Exclusion 4)
Assay endpoint: apparent KD of MS2 coat protein
Unit label: nM
Observed: 561

Residues: UUUAGUUCAGGAUAUGUAGACAUUAACAUGAGGAUCACCCAUGUAGAUCCUGAAUUGGCUACAGAAGGGAGCAUUU [Mod of Brourd 10 - Jieux - Exclusion 5] (Eterna round: R97, puzzle: Exclusion 5)
Assay endpoint: apparent KD of MS2 coat protein
Unit label: nM
Observed: 109

Residues: GCGCACCUACCAAAAGGUAGGCCCACAUGAGGAUCACCCAUGUAGGAUAUCGAUUGCUUUGCAGUCGAGAAGGACGUGAUGCGC [JL ENG3 3.80 Mod 17] (Eterna round: R96, puzzle: Exclusion NG 3)
Assay endpoint: apparent KD of MS2 coat protein
Unit label: nM
Observed: 25.7

###

Documented apparent KD of K4 kissing-loop reporter across a set of sequences
- System: K4 kissing-loop RNA reporter
- Test description: apparent KD of K4 kissing-loop reporter; higher = weaker reporter binding
- Setup conditions: Eterna round: R107; input ligand: none
Assay endpoint: apparent KD of K4 kissing-loop reporter (nM)

Residues: UUCAGGUGUUCGGCCGCCACUCCAGUGAUGUUGGAGUGGCUUCACAAGGGCCAGGACAAUGUAGGGAGGACCGGGAAUAUCGCAG [Atvebeance]
Observed: 129
//
Residues: ACACGGAGAGGCAUAACGUGCAUCUUCAGCGAGGAUAUCCAUUACAGGAGAAGGCGCUCCGGAGUGAUGUUCCGGCAAAAGAUAC [Quatatte]
Observed: 102
//
Residues: AAAUUCUUUUUUUUAUUUAACUUUUCAGAAGGAGCGUGGUAGUACACAGGUAGGUCGCUGAAUUUUGGGCUAGUGAUGUUAGUUA [whbob_SS_Arginine_A_sa113]
Observed: 258
//
Residues: AUGGUGGAUCAGUGAUGUUGGUGGAGUAGGUAGGAUAUGAGUGAUGUUAGAAGGAUCGGAGUGAUGUUCCAGGUGGUUGUGUUGU [KL-SSFMN-A3]
Observed: 548
//
Residues: UUAAUUCCGGUGGUGUGUAGAACACAGUUACGAGGACCGGUACGGCCGCCACUCGGAUGCACUUUCAGUGAUGUUGAAAGCAUCA [Same State Tryptophan A GF 1]
Observed: 643
//
Residues: GGUGCUGUUUGUGCCGCCUUCCUCGUUCCUCGAGGACCGGUACGGCCGCCACUCGAGUGAUGUUUGGGUAGCGAUCCCUGCUAGC [Bdazzled - #14 Exc. Tryptophan A]
Observed: 1370
//
Residues: AUCACAGUGAUGUUGUGAUAUGGUACAGAUACCAGACUAGUGCUAGUCCCUUGGCAGCUGUACUCAGCAGCACCACUAGCACUCG [Theo A Ex t6b]
Observed: 145
//
Residues: GUCCAAACACAGUGAUGUUGUGAAUAUGAAGGAGCGGACGAAAGUCCAGGUAGGUCGCAUAAAGGACACCUACGAAAAGUAGGAA [#SwitchBubble 5 #K4Early]
Observed: 228
//
Residues: GGAUAGGAUAGAGGAUAUGGUUUAUGCAGGAAUAACUUAUUGUGUAAAUCCAUAGGGAGUGAUGUUCCAGAAGGCUGUCCUAUCG [MatMod 14 - Jieux - Exclusion - FMN B]
Observed: 230
//
Residues: UGCCGCAAGGCGAGCGCUCCCACUCCGGAAGGAGCGCCCGUAAGGGCAGGUAGGUCGCCGGAGUGAUGUUCCGGUGGAGGGCUCG [#2 Exclusion - Arginine A Attempt #24 (Inspired by Omei)]
Observed: 537
//
Residues: AACAUUUUCAGAAGGAGCGUGAAUUAUUCAUAAUUAUAUUAUACGAGUGAUGUUCGUAUUUCACAGGUAGGUCGCUGAUAUAUUA [JR_SSArginiB_Sub001]
Observed: 114

###

- Test system: MS2 coat protein
- Test description: apparent KD of MS2 coat protein; designed switch direction (-1 OFF switch, 1 ON switch): -1; higher = weaker reporter binding
- Setup conditions: input ligand: FMN 200 uM
Assay endpoint: apparent KD of MS2 coat protein (nM)

Residues: GCAGCAUAGUAUACUUACUGUUACAUGAGGAUCACCCAUGUACAGGAUAUGGUCUGGAUUACAGGCCAGAAGGGUACAAGCUGC [Eli exng3 - 024] (Eterna round: R96, puzzle: Exclusion NG 3)
Observed: 10.3
--
Residues: UAUCGGGACUGAGGAUAUUCGUUCGAGCACGAAGAAGAAGGUAGUGUCAGGGACAUGAGGAUCACCCAUGUGAUUUCAGUCCCA [JL ViennaUCT Erinle mod 6] (Eterna round: R96, puzzle: Exclusion NG 1)
Observed: 91.4

###

- Tested on: K4 kissing-loop RNA reporter;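 further: bound reporter read as fluorescence of individual clusters on recovered sequencing chips by microscopy, with normalized cluster intensities fitted with a binding model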
- Test description: apparent KD of K4 kissing-loop reporter; higher = weaker reporter binding
- Setup conditions: Eterna round: R107; input ligand: arginine 13.2 mM

Residues: UGACUGGAUGGAAGGAGCGCUAAACUCCUAGUGAUGUUAGGGAUAUGAGGCAAAGCCUCGAGGCAGGUAGGUCGCCAUCUAGUCU [FiskerMod 19 - Jieux - Same State - Arginine B]
apparent KD of K4 kissing-loop reporter, µM: 0.114
//
Residues: GUAGACAGACUGCAAGCCUAGUCUACAGACUAGGAUAUCAGGAAACUGAGAAGGAGUCUACUUGCAGUGAUGUUGCAAGAAUAAU [[F]''-[K]'-[F]'-[F1]-[F2]-[K1]-[K2]_Design4]
apparent KD of K4 kissing-loop reporter, µM: 0.126
//
Residues: CGAGUGAUGUUCGUUCGUUUAUUUCUUUGACAGGAUAUGCGGAAACGCAGAAGGGUCACCUUUGAGUUAAAGGAAUUUACGUUAU [Ex FMN A 26]
apparent KD of K4 kissing-loop reporter, µM: 0.509
//
Residues: UGUACCGAGUCAGGAUAUGGCGUCGAAAGACGAAUCUUAGUGAUGUUAGGGAUCUGCGAAAGCAGUUCAGAAGGGACUUGGUACU [FmnBS 26 U37+U67]
apparent KD of K4 kissing-loop reporter, µM: 0.427
//
Residues: GCCGUAGAUGGAAGGAGCGUGUCAAAGUGAUGUUUUGAUUAACUCCCUUAGGGAAAGAUGGCACAGGUAGGUCGCCAUCUACGGC
apparent KD of K4 kissing-loop reporter, µM: 0.0742
//
Residues: AUUUUGGUUUAGAGUGAUGUUCCUUGUAUUCGAGGACCGGUACGGCCGCCACUCGAAUAGAAAAGAAAAGAAAUGAGUGAUGUUU [BDazzled - #4 SS Tryptophan A]
apparent KD of K4 kissing-loop reporter, µM: 0.267
//
Residues: AAUGAUCGUAUGGCGAGGUACUCGUGUUCGAAGGAUAUUAAUAGAAUAAGAAGGUCGAAAUCGUGUCUGGAAGUGAUGUUUCCAU [theeternabot_sameState_KL_FMN_A_32]
apparent KD of K4 kissing-loop reporter, µM: 0.106
//
Residues: AAAUAGAUCAGUCACCCAGUGAUGUUGGAAGGAGCGUGCGAAAGCACAGGUAGGUCGCCAGAAUAAAAUUGGCUGAUCAAAAUAA
apparent KD of K4 kissing-loop reporter, µM: 0.337
//
Residues: GGUAGCAUGGCGGCCGCCACUCUUCAUUAGUGAUGUUAAUGCCGAGUGCGCUAACUCCGCCAGGAGAGGACCGGGCCAUGCUACC
apparent KD of K4 kissing-loop reporter, µM: 0.302
//
Residues: GCCGUACGCAUGGAUACCAGCGCUCGUCACCUAGCAGUGAUGUUGCUAAUGCCACGAGGACGCCCUUGGCAGCCAUGCGUACGGC
apparent KD of K4 kissing-loop reporter, µM: 0.101
//
Residues: AAUAUAGUGAUGUUAUAUAAGAAGGAGUUACGAGGACCGGUACGGCCGCCACUCGAAACGAGUGAGGAUUUGGGAGAUUGGGUUC [SSTryptA.L]
apparent KD of K4 kissing-loop reporter, µM: 0.539
//
Residues: CCUGCAGCUGUUACCGAGGGAUGCUACGGACGAGGACCGGUACGGCCGCCACUCGCCAGUGAUGUUGGUGAGGGAGGACGUUACU [KL-XTryp-A21]
apparent KD of K4 kissing-loop reporter, µM: 0.107

Reference source for all entries: the supplement of paper PMC9170038
